Molecular target: human PDE1A (Homo sapiens (Human), UniProt P54750)
pIC50: −log10 of the molar value.
So basically: pIC50 at 8 or higher? That is Condition met. Lower than 8? That is Condition not met.

Compound: Cn1cc(Cc2cn3c(C4(C5CC5)CC4)nnc3c(=O)n2CC2CC2)cn1 [Example 1]
Assigned Class: Condition not met
--
Compound: Cc1c(C)n2c(C3(C4CC4)CC3)nnc2c(=O)n1CC1(C)CC1 [Example 15]
Assigned Class: Condition met
--
Compound: Cc1c(C)n2c(C3(C4CC4)CC3)nnc2c(=O)n1CC1CC1 [Example 2]
Assigned Class: Condition met
--
Compound: Cc1c(C)n2c(C3(C4CC4)CC3)nnc2c(=O)n1CC1CCC1 [Example 4]
Assigned Class: Condition met

* * *

# IC50 per entry for human PDE1C (Homo sapiens (Human), UniProt Q14123)
Measured Quantity: IC50

Compound: Cc1c(C)n2c(C3(C4CC4)CC3)nnc2c(=O)n1CC1(C)CC1 [Example 15]
Observed: 1.4 nM
//
Compound: CCCCn1c(C)c(C)n2c(C3(C4CC4)CC3)nnc2c1=O [Example 5]
Observed: 2.7 nM
//
Compound: CCC1(c2nnc3c(=O)n(CC4CCCCO4)c(C)c(C)n23)CC1 (single isomer, unassigned) [Example 12]
Observed: 13.2 nM
//
Compound: Cc1c(C)n2c(C3(C4CC4)CC3)nnc2c(=O)n1CC1CCCCO1 (single isomer, unassigned) [Example 9]
Observed: 0.958 nM

* * *

# pIC50 per entry for human PDE1C (Homo sapiens (Human))
pIC50: −log10 of the molar value.

Molecule: Cc1c(C)n2c(C3(C4CC4)CC3)nnc2c(=O)n1CC1CCCCO1 (single isomer, unassigned) [Example 10]
pIC50: 8.70

Molecule: Cc1c(C)n2c(C3(C4CC4)CC3)nnc2c(=O)n1CC1CCC1
pIC50: 8.97

Molecule: Cc1c(C)n2c(C3(C4CC4)CC3)nnc2c(=O)n1CC1CC1
pIC50: 8.55

Molecule: CCCCn1c(C)c(CC)n2c(C3(C4CC4)CC3)nnc2c1=O
pIC50: 8.92

Molecule: CCCCCn1c(C)c(C)n2c(C3(C4CC4)CC3)nnc2c1=O
pIC50: 8.90

Molecule: Cn1cc(Cc2cn3c(C4(C5CC5)CC4)nnc3c(=O)n2CC2CC2)cn1
pIC50: 7.92

* * *

Target: human PDE6A/6B (Homo sapiens (Human), UniProt P16499+P35913)
Sequence (P16499 whole entry): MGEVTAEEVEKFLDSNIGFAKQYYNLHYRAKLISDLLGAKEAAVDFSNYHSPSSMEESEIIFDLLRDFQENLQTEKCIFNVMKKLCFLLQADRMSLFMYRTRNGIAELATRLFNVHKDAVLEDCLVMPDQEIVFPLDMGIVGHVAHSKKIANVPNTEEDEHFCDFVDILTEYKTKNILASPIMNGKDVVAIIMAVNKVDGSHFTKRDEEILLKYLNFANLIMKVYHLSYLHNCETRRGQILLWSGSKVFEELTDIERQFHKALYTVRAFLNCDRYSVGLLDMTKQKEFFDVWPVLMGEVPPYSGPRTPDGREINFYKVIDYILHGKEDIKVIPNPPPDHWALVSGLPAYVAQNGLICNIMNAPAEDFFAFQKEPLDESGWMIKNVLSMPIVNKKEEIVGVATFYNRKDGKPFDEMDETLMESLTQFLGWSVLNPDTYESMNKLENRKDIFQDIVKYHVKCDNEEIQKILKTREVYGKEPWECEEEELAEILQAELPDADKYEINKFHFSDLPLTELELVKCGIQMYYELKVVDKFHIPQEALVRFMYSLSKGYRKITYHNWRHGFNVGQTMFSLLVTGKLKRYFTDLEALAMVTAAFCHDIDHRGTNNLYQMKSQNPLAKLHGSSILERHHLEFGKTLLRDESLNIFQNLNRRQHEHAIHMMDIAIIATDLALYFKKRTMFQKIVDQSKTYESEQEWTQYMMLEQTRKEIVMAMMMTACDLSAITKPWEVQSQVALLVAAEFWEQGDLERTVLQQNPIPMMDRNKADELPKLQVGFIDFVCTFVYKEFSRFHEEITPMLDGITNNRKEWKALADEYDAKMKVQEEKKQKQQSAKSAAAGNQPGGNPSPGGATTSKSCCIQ
Sequence (P35913 whole entry): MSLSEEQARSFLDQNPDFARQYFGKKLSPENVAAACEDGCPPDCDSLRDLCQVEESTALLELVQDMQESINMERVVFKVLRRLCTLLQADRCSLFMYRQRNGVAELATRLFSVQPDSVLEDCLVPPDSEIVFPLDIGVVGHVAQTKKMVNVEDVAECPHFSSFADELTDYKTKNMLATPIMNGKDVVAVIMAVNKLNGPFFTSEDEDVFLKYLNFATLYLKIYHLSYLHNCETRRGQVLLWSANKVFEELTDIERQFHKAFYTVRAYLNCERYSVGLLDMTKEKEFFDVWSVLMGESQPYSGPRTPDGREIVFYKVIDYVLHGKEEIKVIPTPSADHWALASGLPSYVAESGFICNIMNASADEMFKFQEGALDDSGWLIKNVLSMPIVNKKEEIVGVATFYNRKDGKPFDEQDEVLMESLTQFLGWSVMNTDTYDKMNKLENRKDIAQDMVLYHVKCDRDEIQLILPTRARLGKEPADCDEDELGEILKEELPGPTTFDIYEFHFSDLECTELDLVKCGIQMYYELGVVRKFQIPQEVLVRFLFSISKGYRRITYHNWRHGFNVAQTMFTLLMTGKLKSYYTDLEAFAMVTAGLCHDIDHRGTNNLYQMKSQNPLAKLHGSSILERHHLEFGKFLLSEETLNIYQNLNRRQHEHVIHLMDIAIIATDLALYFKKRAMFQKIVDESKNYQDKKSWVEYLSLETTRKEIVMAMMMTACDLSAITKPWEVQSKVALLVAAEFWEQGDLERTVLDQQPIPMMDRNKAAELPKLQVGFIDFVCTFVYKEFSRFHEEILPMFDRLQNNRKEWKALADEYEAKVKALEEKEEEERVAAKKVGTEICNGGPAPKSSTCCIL
Test: PDE enzyme assay using [3H]cGMP as substrate (SPA)
Conditions: [3H]cGMP 80 nM; read-out: PDE6AB IC50
pIC50: −log10 of the molar value.
Catalogue of pIC50 values
Measured Quantity: pIC50

Molecule: Cc1c(C)n2c(C3(C4CC4)CC3)nnc2c(=O)n1CC1CCCCO1 (racemic) [Example 6]
Experimental System: human PDE6A/6B (Homo sapiens (Human), UniProt P16499+P35913)
Observed: < 5.00
--
Molecule: Cc1c(C)n2c(C3(C4CC4)CC3)nnc2c(=O)n1CC1CC1
Experimental System: human PDE6A/6B (Homo sapiens (Human), UniProt P16499+P35913)
Observed: < 5.00
--
Molecule: CCC1(c2nnc3c(=O)n(CC4CCCCO4)c(C)c(C)n23)CC1 (single isomer, unassigned) [Example 12]
Experimental System: human PDE6A/6B (Homo sapiens (Human), UniProt P16499+P35913)
Observed: 5.12
--
Molecule: CCC1(c2nnc3c(=O)n(CC4CCCCO4)c(C)c(C)n23)CC1 (racemic) [Example 7]
Experimental System: human PDE6A/6B (Homo sapiens (Human), UniProt P16499+P35913)
Observed: < 5.00
